# Tested on: SNARK
# Construct: gene NUAK2
# settings: concentration: 1 μM, replicates: in singlicate; n = 1;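 also: KINOMEscan kinase panel screen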
Everything with %Inh lower than 1% is f; everything else, including exactly 1%, is t.

Consider the following illustrative entries.
Q: Quick check: does "Nc1ncnc2[nH]c(-c3ccccc3)nc12" have %Inh greater than or equal to 1%?
Result: t

Q: Given "COc1ccc(Nc2nccc(NCCNC(=O)Nc3ccccc3F)n2)cc1" , state whether its %Inh is at least 1%.
Result: f

Q: Check this compound for %Inh at or above 1%: "CC(=O)Nc1nc2cnc(Nc3cc(NC(=O)c4cccc(CCC#N)c4)ccc3C)nc2s1"
Result: t

Q: Has "COc1ccc2nc(-c3cccc(C)n3)nc(Nc3ccncc3)c2c1" a recorded %Inh greater than or equal to 1%?
Result: f

Q: Does the reported %Inh for "CS(=O)(=O)c1ccc(-c2c(-c3ncn[nH]3)sc(N3CCOCC3)c2C#N)cc1" fall at or above the 1% mark?
Result: f

Q: Given O=C(Nc1ccc2c(c1)OCO2)NC1CCN(c2ccnc(Nc3ccc(F)cc3)n2)C1 (stereo not drawn) , state whether its %Inh is at least 1%.
Result: f

Q: Could you tell me if the measured %Inh of "COc1ccc(C2=C(Nc3cccc(C(=O)O)c3)C(=O)NC2=O)cc1" reaches 1% or more?
Result: t

Could you now consider this next compound?
Q: Could you tell me if the measured %Inh of "CCn1c(-c2ccccn2)nc2cnccc21" reaches 1% or more?
Result: f

* * *

# Test system: INSRR
# settings: concentration: 1 μM, replicates: in singlicate; n = 1
Would you kindly list %Inh for each of these compounds?
Numbers only, in %.

These recorded examples may help you get a feel for the data.
Lab note: "Fc1cccc(COc2nnc(-c3ccc4c(c3)CCO4)o2)c1" gave %Inh of 0

Quick note, %Inh for CC1=C(C(=O)Nc2cc3cn[nH]c3cc2F)C(c2ccc(C(F)(F)F)cc2)CC(=O)N1 (stereo not shown) [GSK429286] landed at 0

Hi there! I need %Inh for each item below, if you can.
1. Clc1cc(Cl)cc(Nc2ccnc(Nc3cc(Cl)cc(Cl)c3)n2)c1 [GSK175726]
2. COC(=O)c1c(-c2ccccc2)c2cc(C(=O)O)ccc2c(=O)n1Cc1ccccc1
3. Cc1ccc(-c2cc(-c3c[nH]nc3-c3ccccn3)ccn2)cc1 [GW684088]
4. COc1cc(Nc2nccc(N3CCC(NC(=O)Nc4cc(C)ccc4C)C3)n2)cc(OC)c1OC (stereo not shown) [GSK1379762]
5. Cc1cc(-c2ccc3c(c2)CC[C@@H](N[C@@H](C)c2ccccc2)C3)cnc1N.Cl [GW412617]

Result:
1: 0; 2: 7; 3: 0; 4: 9; 5: 31

* * *

# System: MLK3
# settings: concentration: 1 μM, replicates: in singlicate; n = 1
result_type: %Inh (%)
Give bare numbers, in %.

# example entries with known answers
response.value for Cc1cc(NCC(c2ccccc2)c2ccccc2)nc(NCc2ccc(C(F)(F)F)cc2)n1 [GW497681] (field: %Inh) = 0

Lab book: %Inh of Cc1ccc(C(=O)Nc2ccc(Nc3ccnc4cc(-c5ccccn5)ccc34)cc2O)cc1.Cl [GW440146] noted as 0

Input Fc1cc(Cl)ccc1Nc1ccnc2cc(-c3ccc(CN4CCCCC4)o3)ccc12 [GW560116] . Output %Inh: 0

According to the records, this compound Cc1nnc(-c2ccc3occ(-c4ccc(S(C)=O)cc4)c3c2)[nH]1 (stereo not shown) displays %Inh of 4

Looking up "Fc1cccc(COc2nnc(-c3ccc4c(c3)CCO4)o2)c1" , I found its %Inh recorded as 0

Batch request: %Inh for each of the following compounds.
1. COc1ccc(CNC(=O)NC2CCN(c3ccnc(Nc4cc(OC)c(OC)c(OC)c4)n3)C2)cc1 (stereo not shown) [GSK1379748]
2. Cc1cc(-c2ccc3c(c2)CC[C@@H](N[C@@H](C)c2ccccc2)C3)cnc1N.Cl [GW412617]
3. CC(C)(C)c1ccc(C(=O)Nc2cn3cc(-c4cccnc4)ccc3n2)cc1
4. CCn1c(-c2ccccn2)nc2cnccc21 [SB-736398]
5. Cn1cncc1-c1ccc2ncnc(Nc3ccc(OCc4ccccc4)cc3)c2c1 [GW320571]
6. COC(=O)c1c(-c2ccccc2)c2cc(C(=O)O)ccc2c(=O)n1Cc1ccccc1
7. COc1ccc(Nc2nccc(-c3cccc(NC(=O)c4cc5cc(F)ccc5[nH]4)c3)n2)cc1 [GSK1229782]

Result:
1. 23
2. 32
3. 0
4. 7
5. 20
6. 0
7. 34

For reference, reported %Inh for Cc1cccc(-c2nc(Nc3ccncc3)c3ccccc3n2)n1 [GW855857] stands at 6

* * *

# Tested on: PAK7
# settings: concentration: 1 μM, replicates: in singlicate; n = 1
Would you kindly list %Inh for each of these molecules?
Answers are plain numbers, in %.

In plain terms, Cc1c(O)cccc1Nc1ccnc2ccc(C(F)(F)F)cc12.Cl [GW466413] has a documented %Inh of 0

Batch lookup, %Inh per entry.
1. COc1cc(Nc2nccc(N3CCC(NC(=O)Nc4cc(C)ccc4C)C3)n2)cc(OC)c1OC (stereo not shown) [GSK1379762]
2. COc1cc2ncnc(Nc3ccc4nc(-c5ccccc5)[nH]c4c3)c2cc1OC.Cl [GW282450]
3. O=S(=O)(c1ccc(-c2ccnc3[nH]ccc23)cc1)N1CCCC1 [GSK846226]
4. CC1=C(C(=O)Nc2cc3cn[nH]c3cc2F)C(c2ccc(C(F)(F)F)cc2)CC(=O)N1 (stereo not shown) [GSK429286]
5. Cl.NC(=O)c1cccc(Nc2nccc(Nc3ccc(Oc4cccc(Cl)c4)c(Cl)c3)n2)c1 [GW659008]
6. Cc1cc(NCC(c2ccccc2)c2ccccc2)nc(NCc2ccc(C(F)(F)F)cc2)n1 [GW497681]

Result:
1. 0
2. 12
3. 15
4. 0
5. 5
6. 0

* * *

# Tested on: HPK1
# settings: concentration: 1 μM, replicates: in singlicate; n = 1
Assign %Inh to each entry below.
Numbers only, in %.

// solved cases for %Inh follow
// %Inh lookup, molecule = O=C(Nc1n[nH]c2nc(-c3nccs3)c(Br)cc12)C1CC1 [SB-742251] , result: 48

// %Inh lookup, molecule = "COC(=O)c1c(-c2ccccc2)c2cc(OC)ccc2c(=O)n1Cc1ccccc1" , result: 0

***
%Inh measured on COc1cc(Nc2nccc(N3CCC(NC(=O)Nc4cc(C)ccc4C)C3)n2)cc(OC)c1OC (stereo not drawn) [GSK1379762] = 66

* * *

Provide the reported %Inh of each item.
# Tested on: MAP4K4
# settings: concentration: 1 μM, replicates: in singlicate; n = 1
Answers are plain numbers, in %.

As a guide, the following entries are already answered.
Per the record, "CSc1nn2c(=O)cc(N3CCOCC3)nc2n1Cc1cccc(C(F)(F)F)c1C" has %Inh of 0

The reported %Inh of the molecule "Cc1ccc(-c2cc(-c3c[nH]nc3-c3ccccn3)ccn2)cc1" was 58

# %Inh of "O=C(Nc1n[nH]c2cc(-c3cccc(F)c3F)ccc12)C1CC1" = 32

# %Inh (molecule: "Fc1cc(Cl)ccc1Nc1ccnc2cc(-c3ccc(CN4CCCCC4)o3)ccc12" ) is 0

Documented %Inh of "COc1ccccc1CNC(=O)c1cc(C(=O)c2ccccc2C)c[nH]1" : 6

Dear reader, for each entry below, please note its %Inh.
1. Cc1cccc(-c2nc(Nc3ccc4[nH]ncc4c3)c3ccccc3n2)n1
2. C[C@@H]1CCCCN1c1cc(-c2ccc3c(N)n[nH]c3c2)nc(N)n1

Result:
1: 0; 2: 0

Record %Inh per entry; entries follow.
1. CC(C)(C)c1ccc(C(=O)Nc2cn3cc(Cl)ccc3n2)cc1
2. Cn1ccc2ncnc(Oc3ccc(NC(=O)Nc4ccccc4)cc3)c21
3. Cc1cc(NCC(c2ccccc2)c2ccccc2)nc(NCc2ccc(C(F)(F)F)cc2)n1
4. Clc1cc(Cl)cc(Nc2ccnc(Nc3cc(Cl)cc(Cl)c3)n2)c1
5. CCCc1ccc(S(=O)(=O)NC2CCN(c3ccnc(Nc4ccc(F)cc4)n3)C2)cc1 (stereo not shown)
6. COc1cccc(-c2cc(-c3c[nH]nc3-c3ccccn3)ccn2)c1
7. Fc1cccc(COc2nnc(-c3ccc4c(c3)CCO4)o2)c1

Result:
[2, 0, 0, 0, 0, 40, 0]

Hey, quick one: what's %Inh for each of these?
1. COc1cc2ncnc(Nc3ccc4nc(-c5ccccc5)[nH]c4c3)c2cc1OC.Cl
2. Cn1ccc2ncnc(Oc3ccc(Nc4nc5ccccc5[nH]4)cc3)c21
3. CC(C)(C)c1ccc(C(=O)Nc2cn3cc(-c4cccnc4)ccc3n2)cc1
4. CCn1c(-c2cccnc2O)nc2cnccc21
5. Cc1cc(N2Cc3ccccc3C2)nc(Nc2ccc(S(=O)(=O)N3CCOCC3)cc2)n1.Cl
6. O=C(Nc1n[nH]c2nc(-c3nccs3)c(Br)cc12)C1CC1
7. NC(=O)c1nnc2ccccc2c1N
8. CC1=C(C(=O)Nc2cc3cn[nH]c3cc2F)C(c2ccc(C(F)(F)F)cc2)CC(=O)N1 (stereo not shown)

Result:
1. 0
2. 0
3. 15
4. 0
5. 0
6. 4
7. 12
8. 59
